Target: T1, C-terminally truncated Ste2p H94Y (Saccharomyces cerevisiae, UniProt D6VTK4 1-303, H94Y)
T1 sequence (looked up): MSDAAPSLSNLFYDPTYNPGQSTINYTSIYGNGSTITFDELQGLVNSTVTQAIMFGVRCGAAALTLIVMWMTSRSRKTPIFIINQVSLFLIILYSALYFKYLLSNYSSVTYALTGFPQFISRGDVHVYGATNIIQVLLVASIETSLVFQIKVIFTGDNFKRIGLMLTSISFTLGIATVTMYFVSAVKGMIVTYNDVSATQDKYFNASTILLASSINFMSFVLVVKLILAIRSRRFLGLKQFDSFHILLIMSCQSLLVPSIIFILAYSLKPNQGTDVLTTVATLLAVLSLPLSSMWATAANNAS
Test: flow cytometry on cells
pKd: −log10 of the molar value.
measured property: pKd

binder	measured property	test value
WHWLQLKPGQPMY (NBD (7-nitrobenz-2-oxa-1,3-diazol-4-yl) conjugated to the lysine at position 7; norleucine at position 12 in place of methionine) [[K^7(NBD),Nle^12] α-factor]	pKd	7.05
